# Test description: Pharmacokinetics after single oral administration in mice
# Format: in vivo
# Details: male, C57BL/6J, brain; mouse, single oral dose 2 mg/kg
Measurement name: half-life

Could you tell me which half-life is on file for "[H]/N=C(\N)NN=Cc1cccc(Cl)c1Cl" ? 4 to 6 h

---

# Measured target: R15B-PP1c holophosphatase (R15B^340-698-PP1c) (Homo sapiens, UniProt Q5SWA1)
# Construct: cDNAs encoding amino acids 325-636 of R15A and 340-698 of R15B were cloned into pMAL-c5x; bio-PP1c: Sf9 insect cells (baculovirus)
# Sequence (Q5SWA1 340-698): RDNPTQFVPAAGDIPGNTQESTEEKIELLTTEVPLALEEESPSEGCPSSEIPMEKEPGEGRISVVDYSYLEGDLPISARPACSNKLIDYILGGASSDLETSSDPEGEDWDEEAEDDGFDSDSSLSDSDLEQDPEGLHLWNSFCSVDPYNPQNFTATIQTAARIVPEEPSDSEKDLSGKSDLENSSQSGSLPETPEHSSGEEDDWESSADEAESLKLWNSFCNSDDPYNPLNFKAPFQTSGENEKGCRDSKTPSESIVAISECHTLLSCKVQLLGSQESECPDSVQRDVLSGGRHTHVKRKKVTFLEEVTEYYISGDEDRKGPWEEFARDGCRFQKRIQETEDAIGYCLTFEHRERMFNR
# Sequence (P36873 1-322 partner limits assumed): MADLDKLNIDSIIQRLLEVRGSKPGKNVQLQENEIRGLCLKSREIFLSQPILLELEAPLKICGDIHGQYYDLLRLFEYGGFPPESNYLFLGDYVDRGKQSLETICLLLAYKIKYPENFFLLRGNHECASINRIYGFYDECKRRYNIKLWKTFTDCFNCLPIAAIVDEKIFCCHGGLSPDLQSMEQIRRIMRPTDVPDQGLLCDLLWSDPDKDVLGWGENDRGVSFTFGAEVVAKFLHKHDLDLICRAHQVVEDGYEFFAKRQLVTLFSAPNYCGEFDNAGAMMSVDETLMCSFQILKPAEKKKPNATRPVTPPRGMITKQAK
# Test description: Holophosphatase SPR, compounds binding to reconstituted R15B-PP1c
# Details: holophosphatase reconstituted on SA chip; 20°C; mean ± SD; read-out: KD, steady-state affinity for R15B-PP1c
Measurement name: pKd
Just so you know, pKd here is -log10 of the concentration in molar units; reply with that number alone.

Could you tell me which pKd is on file for "[H]/N=C(\N)NN=Cc1cccc(Cl)c1Cl" ? 7.48

---

# Measured target: R15A-PP1c holophosphatase (R15A^325-636-PP1c) (Homo sapiens, UniProt O75807)
# Construct: cDNAs encoding amino acids 325-636 of R15A and 340-698 of R15B were cloned into pMAL-c5x; bio-PP1c: Sf9 insect cells (baculovirus)
# Sequence (O75807 325-636, stated change not applied): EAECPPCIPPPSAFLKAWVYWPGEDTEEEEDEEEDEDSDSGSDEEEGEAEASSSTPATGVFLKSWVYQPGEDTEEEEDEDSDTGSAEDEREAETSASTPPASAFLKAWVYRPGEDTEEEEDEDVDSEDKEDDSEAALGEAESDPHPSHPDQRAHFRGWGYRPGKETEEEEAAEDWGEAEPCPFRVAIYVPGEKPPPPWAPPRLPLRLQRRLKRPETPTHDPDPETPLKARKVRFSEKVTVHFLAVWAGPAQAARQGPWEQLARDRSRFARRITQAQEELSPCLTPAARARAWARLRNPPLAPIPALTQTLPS
# Sequence (P36873 1-322 partner): as the sequence (P36873 1-322 partner limits assumed) above
# Test description: Holophosphatase SPR, compounds binding to reconstituted R15A-PP1c
# Details: holophosphatase reconstituted on SA chip; 20°C; mean ± SD; read-out: KD, steady-state affinity for R15A-PP1c
Measurement name: Kd (nM)
Please give a number only; it is taken to be in nM.

Could you tell me which Kd is on file for [H]/N=C(\N)NN=Cc1cccc(Cl)c1Cl [Raphin1] ? 977
